Where do the numbers come from? From patent US4161542A.

Test system: β-receptors
Assay: β-blocking activity in reserpinized anesthetized cat (block of isoprenaline effect on heart rate and peripheral resistance; intrinsic activity)
Type: in vivo
Details: cumulative doses, vs isoprenaline i.v., peripheral vascular resistance
Response field label: string, one of label 1 (Block of isopren. ED50 PR (peripheral resistance blockade) strictly below 0.5 mg/kg) or label 0.

# Compound, Label Value
measured = [
    ("Cc1cccc(OCC(O)CNC(C)Cc2ccc(O)cc2)c1 (stereo not shown) [Ex. 15]", "label 0"),
    ("CCc1ccccc1OCC(O)CNC(C)(C)Cc1ccc(O)cc1 (stereo not shown) [Ex. 6]", "label 1"),
    ("Cc1cccc(OCC(O)CNC(C)Cc2ccc(O)cc2)c1C (stereo not shown) [Ex. 9]", "label 0"),
    ("C#CCOc1ccccc1OCC(O)CNC(C)Cc1ccc(O)cc1 (stereo not shown) [Ex. 4]", "label 1"),
    ("Cc1ccccc1OCC(O)CNC(C)(C)Cc1ccc(O)cc1 (stereo not shown) [Ex. 5]", "label 1"),
    ("Cc1ccccc1OCC(O)C(C)NC(C)(C)Cc1ccc(O)cc1 (stereo not shown) [Ex. 13]", "label 0"),
]
